- Measurement notes: Amino acid solubility considerations (estimated concentration v. solubility limit)
- Type: physicochemical
- Condition set: % of solubility limit at 25° C.
Assay readout: Sterile liquid protein concentration, % of limit (%)

Structure string	U	Readout value
CC[C@H](C)[C@H](N)C(=O)O	%	22

1: CC(C)[C@H](N)C(=O)O
2: N[C@@H](Cc1ccccc1)C(=O)O
3: CC(C)C[C@H](N)C(=O)O
4: N[C@@H](Cc1ccc(O)cc1)C(=O)O
Ask: Ranking field: Sterile liquid protein concentration, % of limit; order: falling. # respond with the labels, arranged in the requested order
Reply: 4, 3, 2, 1

// provenance: patent US20190014793A1
